Values were extracted from paper PMC11358156.

- assayed.system: fast skeletal myosin MYH1 (Oryctolagus cuniculus, UniProt A0A5F9CQ93)
- Construct: with sarcomere proteins (actin, troponin, tropomyosin) of the myofibril
- Sequence (P02602 2-192): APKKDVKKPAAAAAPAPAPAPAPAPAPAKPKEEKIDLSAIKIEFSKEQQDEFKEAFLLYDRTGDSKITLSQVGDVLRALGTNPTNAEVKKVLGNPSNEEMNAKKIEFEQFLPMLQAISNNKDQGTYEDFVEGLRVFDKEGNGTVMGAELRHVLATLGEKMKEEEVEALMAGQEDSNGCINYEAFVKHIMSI
- Sequence (P02608 2-170, further chain): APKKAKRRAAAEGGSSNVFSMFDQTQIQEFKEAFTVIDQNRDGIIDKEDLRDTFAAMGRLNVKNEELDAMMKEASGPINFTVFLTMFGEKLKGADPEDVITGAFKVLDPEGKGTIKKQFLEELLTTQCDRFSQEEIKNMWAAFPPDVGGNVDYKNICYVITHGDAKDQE
- Sequence (A0A5F9CQ93 entry or part of it): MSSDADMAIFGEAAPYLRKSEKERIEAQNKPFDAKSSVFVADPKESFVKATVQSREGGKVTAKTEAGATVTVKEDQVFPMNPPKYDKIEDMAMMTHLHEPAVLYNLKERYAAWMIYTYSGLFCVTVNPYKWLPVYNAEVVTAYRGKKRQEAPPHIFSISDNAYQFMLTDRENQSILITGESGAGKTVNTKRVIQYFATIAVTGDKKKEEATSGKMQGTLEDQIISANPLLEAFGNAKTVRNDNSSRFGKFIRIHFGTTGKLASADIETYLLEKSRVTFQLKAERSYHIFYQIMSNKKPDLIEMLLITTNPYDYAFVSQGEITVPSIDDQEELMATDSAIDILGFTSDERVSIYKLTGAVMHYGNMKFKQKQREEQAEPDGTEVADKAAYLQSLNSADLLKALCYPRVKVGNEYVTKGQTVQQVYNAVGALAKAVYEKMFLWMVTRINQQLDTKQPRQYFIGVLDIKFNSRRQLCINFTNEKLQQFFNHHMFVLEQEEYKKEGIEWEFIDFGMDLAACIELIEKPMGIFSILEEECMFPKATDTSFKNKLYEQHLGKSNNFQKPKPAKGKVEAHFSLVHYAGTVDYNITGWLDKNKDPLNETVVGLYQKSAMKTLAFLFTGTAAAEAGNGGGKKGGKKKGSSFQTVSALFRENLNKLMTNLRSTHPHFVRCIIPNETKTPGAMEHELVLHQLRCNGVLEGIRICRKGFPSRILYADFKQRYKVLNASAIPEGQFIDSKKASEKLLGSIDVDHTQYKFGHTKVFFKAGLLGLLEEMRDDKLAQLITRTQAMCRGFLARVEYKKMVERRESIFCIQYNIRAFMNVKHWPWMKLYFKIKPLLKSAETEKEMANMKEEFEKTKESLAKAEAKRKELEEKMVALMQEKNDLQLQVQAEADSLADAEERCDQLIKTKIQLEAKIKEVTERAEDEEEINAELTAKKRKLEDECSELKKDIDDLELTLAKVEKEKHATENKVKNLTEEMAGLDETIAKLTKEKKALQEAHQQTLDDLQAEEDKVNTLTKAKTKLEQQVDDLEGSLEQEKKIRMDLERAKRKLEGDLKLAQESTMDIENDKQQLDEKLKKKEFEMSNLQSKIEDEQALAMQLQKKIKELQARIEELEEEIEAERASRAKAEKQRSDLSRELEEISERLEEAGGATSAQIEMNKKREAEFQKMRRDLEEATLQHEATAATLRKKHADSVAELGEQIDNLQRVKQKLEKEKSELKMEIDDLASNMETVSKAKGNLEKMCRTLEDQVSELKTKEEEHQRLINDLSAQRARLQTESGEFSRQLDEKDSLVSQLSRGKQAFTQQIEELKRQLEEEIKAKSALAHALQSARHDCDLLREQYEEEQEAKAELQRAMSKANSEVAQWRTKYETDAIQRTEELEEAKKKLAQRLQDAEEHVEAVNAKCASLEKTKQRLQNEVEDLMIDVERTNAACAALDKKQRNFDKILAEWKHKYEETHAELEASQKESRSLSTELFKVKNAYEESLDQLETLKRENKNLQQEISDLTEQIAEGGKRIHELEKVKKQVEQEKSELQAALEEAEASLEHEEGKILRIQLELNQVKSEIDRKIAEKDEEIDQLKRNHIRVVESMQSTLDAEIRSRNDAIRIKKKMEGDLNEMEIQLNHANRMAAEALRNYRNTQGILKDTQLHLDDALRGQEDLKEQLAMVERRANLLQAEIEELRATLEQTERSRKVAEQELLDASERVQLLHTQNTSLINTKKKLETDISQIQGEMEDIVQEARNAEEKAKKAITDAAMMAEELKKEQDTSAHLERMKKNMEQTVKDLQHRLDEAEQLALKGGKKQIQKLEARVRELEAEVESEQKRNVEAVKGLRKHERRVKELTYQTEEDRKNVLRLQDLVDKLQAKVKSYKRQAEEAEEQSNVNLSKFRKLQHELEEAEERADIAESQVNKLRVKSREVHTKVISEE
- measurement.notes: myofibril ATPase assay
measured.endpoint: pIC50
Formally, pIC50 is defined as -log10 of the concentration c, with c in mol/L.

// molecule "CCc1nc(-c2ccc3c(c2)CC[C@H]3NC(=O)c2cnn(C)c2)no1" , assay fast skeletal myosin MYH1 (Oryctolagus cuniculus, UniProt A0A5F9CQ93), pIC50 value: 5.19
